assayed_target: human D2 receptor (Homo sapiens (Human), UniProt P14416)
Sequence (P14416 whole entry): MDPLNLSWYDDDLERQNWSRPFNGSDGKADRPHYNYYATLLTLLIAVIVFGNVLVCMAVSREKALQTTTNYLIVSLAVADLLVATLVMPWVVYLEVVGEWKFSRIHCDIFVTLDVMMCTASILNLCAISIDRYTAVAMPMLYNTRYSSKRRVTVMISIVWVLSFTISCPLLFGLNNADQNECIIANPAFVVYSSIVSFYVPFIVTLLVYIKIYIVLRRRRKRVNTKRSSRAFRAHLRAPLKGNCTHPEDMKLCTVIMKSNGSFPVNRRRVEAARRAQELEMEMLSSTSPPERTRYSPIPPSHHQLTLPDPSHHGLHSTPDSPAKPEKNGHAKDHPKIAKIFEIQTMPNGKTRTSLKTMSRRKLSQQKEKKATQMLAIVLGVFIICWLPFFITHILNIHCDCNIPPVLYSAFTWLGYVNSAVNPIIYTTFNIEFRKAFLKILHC
procedure_text: Radioligand binding assay, [3H]-spiperone, human D2 receptor
condition: membranes of HEK293 EBNA cells expressing human D2; 0.7 nM [3H]-spiperone
Experimental: HEK293 EBNA cells were transiently transfected with expression plasmids encoding for the human D2 or D3 or for the human 5-HT2A receptor, respectively. […] The protein content of this homogenate was determined with the Bio-Rad (Bradford) Protein Assay (Biorad Laboratories GmbH, München, Germany) according to the instructions of the manufacturer using gamma globulin as the standard. […] The binding affinity (Ki) of the compounds was determined using radioligand binding. […]
test_readout: pKi
// scale note: pKi = -log10(conc_M); give the bare number

Please review the following examples before continuing.
CO[C@@H]1CC[C@@H](CC(=O)N[C@H]2CC[C@H](CCN3CCN(c4nccc5sccc45)CC3)CC2)C1 (racemic) [Example 21]; 6.57
COCCC(=O)N[C@H]1CC[C@H](CCN2CCN(c3nccc4c3CCO4)CC2)CC1; 5.83
O=C(CC1CCC1)N[C@H]1CC[C@H](CCN2CCN(c3nccc4c3CCO4)CC2)CC1; 6.22
O=C(CC1CCCO1)N[C@H]1CC[C@H](CCN2CCN(c3nccc4c3CCO4)CC2)CC1 (mixture of isomers); 5.90

Could you now look at the following compound, please?
Query block: Look up pKi for this compound: "CC(=O)N[C@H]1CC[C@H](CCN2CCN(c3nc(C)cc4c3CCO4)CC2)CC1"
Result block: 6.04
